Assay: Antioxidant activity of the compound assessed as DPPH radical scavenging activity at 5 mg/ml incubated in dark condition for 15 mins by colorimetric method relative to control
Format: physicochemical
Conditions: 0.25 h
Reported Property: Activity

Would you please look over these solved cases?
- Compound: "O[C@@H]1[C@@H](O)[C@H](O)C[C@H](NCCc2ccccc2)[C@@H]1O"
  Recorded Value: "< 20%"
- Compound: "C[C@H]1O[C@H](O[C@H]2[C@H](O)[C@@H](O)[C@@H](O[C@H]3[C@H](O)[C@@H](O)C(O)O[C@@H]3CO)O[C@@H]2CO)[C@H](O)[C@@H](O)[C@@H]1N[C@H]1C=C(CO)[C@@H](O)[C@H](O)[C@H]1O (stereo partly drawn)"
  Recorded Value: "< 20%"

Pending compound:
Determine from records and report Activity for O[C@@H]1[C@@H](O)[C@H](O)C[C@H](NCc2cccnc2)[C@@H]1O
< 20%

----------
Experiment: Antioxidant activity of the compound assessed as DPPH radical scavenging activity incubated in dark condition for 15 mins by colorimetric method
Assay type: physicochemical
Conditions: 0.25 h
This section presents molecules with their documented SC50 values.
Number only, in mM; omit the unit.

- Mol Smiles: "COc1cc(C=O)ccc1O"
  Unit Of Measure: "mM"
  SC50: 4.9
- Mol Smiles: "CC(C)(C)c1cc(C=O)cc(C(C)(C)C)c1O"
  Unit Of Measure: "mM"
  SC50: 1.4
- Mol Smiles: "COc1cc(CN[C@H]2C[C@@H](O)[C@H](O)[C@@H](O)[C@H]2O)ccc1O"
  Unit Of Measure: "mM"
  SC50: 2.1
- Mol Smiles: "CC(C)(C)c1cc(CN[C@H]2C[C@@H](O)[C@H](O)[C@@H](O)[C@H]2O)cc(C(C)(C)C)c1O"
  Unit Of Measure: "mM"
  SC50: 0.4

Pending molecule:
Determine from records and report SC50 for Oc1ccc(CN[C@H]2C[C@@H](O)[C@H](O)[C@@H](O)[C@H]2O)cc1
16.2

----------
Experiment: Inhibition of baker's yeast alpha-glucosidase
Parameters: species or system Saccharomyces cerevisiae
Reported Property: log10 of IC50 (log10 of the value in µM)
Quick note: numbers are log10 of IC50, with µM as the unit.

Would you please look over these solved cases?
- Molecule: "CC(C)(C)c1cc(CN[C@H]2C[C@@H](O)[C@H](O)[C@@H](O)[C@H]2O)cc(C(C)(C)C)c1O"
  log10 of IC50: 1.95
- Molecule: "COc1cc(CN[C@H]2C[C@@H](O)[C@H](O)[C@@H](O)[C@H]2O)ccc1O"
  log10 of IC50: 1.97
- Molecule: "OC(CN[C@H]1C[C@@H](O)[C@H](O)[C@@H](O)[C@H]1O)c1ccccc1 (stereo partly drawn)"
  log10 of IC50: 3.48
- Molecule: "C[C@H]1O[C@H](O[C@H]2[C@H](O)[C@@H](O)[C@@H](O[C@H]3[C@H](O)[C@@H](O)C(O)O[C@@H]3CO)O[C@@H]2CO)[C@H](O)[C@@H](O)[C@@H]1N[C@H]1C=C(CO)[C@@H](O)[C@H](O)[C@H]1O (stereo partly drawn)"
  log10 of IC50: 2.68
- Molecule: "O[C@@H]1[C@@H](O)[C@H](O)C[C@H](NCCc2ccccc2)[C@@H]1O"
  log10 of IC50: 3.13

Determine from records and report log10 of IC50 for Oc1ccc(CN[C@H]2C[C@@H](O)[C@H](O)[C@@H](O)[C@H]2O)cc1
2.05

Determine from records and report log10 of IC50 for N[C@H]1C[C@@H](O)[C@H](O)[C@@H](O)[C@H]1O
3.46

Determine from records and report log10 of IC50 for O[C@@H]1[C@@H](O)[C@H](O)C[C@H](NCc2ccc(Br)cc2)[C@@H]1O
3.50
